// reported percent inhibition at 1.22 nM ADC, NCIH661 cells for each item listed
SUBJECT OF TEST: T1, human CDH6 on cells (human, UniProt P55285 54-790)
T1 sequence: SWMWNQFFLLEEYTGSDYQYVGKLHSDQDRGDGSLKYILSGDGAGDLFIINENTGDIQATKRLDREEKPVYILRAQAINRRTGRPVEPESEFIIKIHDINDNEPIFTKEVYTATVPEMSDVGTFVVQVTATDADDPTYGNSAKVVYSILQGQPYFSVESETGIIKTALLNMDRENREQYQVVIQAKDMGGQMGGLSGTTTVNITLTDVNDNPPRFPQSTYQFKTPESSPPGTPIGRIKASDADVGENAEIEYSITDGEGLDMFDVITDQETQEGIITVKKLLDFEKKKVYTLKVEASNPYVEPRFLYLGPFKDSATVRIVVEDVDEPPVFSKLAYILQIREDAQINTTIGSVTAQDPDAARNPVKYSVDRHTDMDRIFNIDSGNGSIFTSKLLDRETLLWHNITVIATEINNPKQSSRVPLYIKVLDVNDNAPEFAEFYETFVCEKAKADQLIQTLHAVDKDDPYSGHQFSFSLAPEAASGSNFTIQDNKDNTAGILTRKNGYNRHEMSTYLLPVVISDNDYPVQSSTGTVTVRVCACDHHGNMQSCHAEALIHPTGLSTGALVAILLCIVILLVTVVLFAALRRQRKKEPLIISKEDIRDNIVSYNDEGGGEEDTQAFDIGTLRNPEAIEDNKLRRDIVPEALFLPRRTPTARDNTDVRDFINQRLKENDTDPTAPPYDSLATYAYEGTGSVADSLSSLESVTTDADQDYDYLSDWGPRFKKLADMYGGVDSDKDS
ASSAY: cell-based or functional assay
RECORDED METRIC: percent inhibition at 1.22 nM ADC, NCIH661 cells (%)

BINDER	READING UNIT	RECORDED VALUE
NOV0674-SMCC-DM1 (antibody, human IgG1, lambda, V domains shown, SMCC-DM1 on primary amines, sites not stated) VH: QVQLLESGGGLVQPGGSLRLSCAASGFTFSSYAMTWVRQAPGKGLEWVSGISGGGSNTYYADSVKGRFTISRDNSKNTLYLQMNSLRAEDTAVYYCARGGGQYFDYWGQGTLVTVSS VL: DIVLTQPPSVSGAPGQRVTISCSGSSSNIGYNYVSWYQQLPGTAPKLLIYRDNQRPSGVPDRFSGSKSGTSASLAITGLQAEDEADYYCAAWTSGSIGWVFGGGTKLTVLG	%	3.9
NOV0670-SMCC-DM1 (antibody, human IgG1, lambda, V domains shown, SMCC-DM1 on primary amines, sites not stated) VH: QVQLVQSGAEVKKPGSSVKVSCKASGGTFSSYAISWVRQAPGQGLEWMGGIIPIFGTANYAQKFQGRVTITADESTSTAYMELSSLRSEDTAVYYCARKFPGRGPFAYWGQGTLVTVSS VL: DIVLTQPPSVSGAPGQRVTISCSGSSSNIGSQYVYWYQQLPGTAPKLLIYYNSERPSGMPDRFSGSKSGTSASLAITGLQAEDEADYYCQTWDASSQSFVFGGGTKLTVLG	%	5.14
NOV0685-SMCC-DM1 (antibody, human IgG1, lambda, V domains shown, SMCC-DM1 on primary amines, sites not stated) VH: QVQLQQSGPGLVKPSQTLSLTCAISGDSVSGNSAAWNWIRQSPSRGLEWLGIIYYRSKWYNDYAVSVKSRITINPDTSKNQFSLQLNSVTPEDTAVYYCARSSYSGGFDYWGQGTLVTVSS VL: DIVLTQPPSVSGAPGQRVTISCSGSSSNIGSYYVSWYQQLPGTAPKLLIYYNTKRPSGVPDRFSGSKSGTSASLAITGLQAEDEADYYCQSWDKLGKGYVFGGGTKLTVLG	%	2.08
